All values here come from patent US20140315889A1.

- tested-system: HDAC10 (Homo sapiens)
- Sequence (Q969S8 1-669): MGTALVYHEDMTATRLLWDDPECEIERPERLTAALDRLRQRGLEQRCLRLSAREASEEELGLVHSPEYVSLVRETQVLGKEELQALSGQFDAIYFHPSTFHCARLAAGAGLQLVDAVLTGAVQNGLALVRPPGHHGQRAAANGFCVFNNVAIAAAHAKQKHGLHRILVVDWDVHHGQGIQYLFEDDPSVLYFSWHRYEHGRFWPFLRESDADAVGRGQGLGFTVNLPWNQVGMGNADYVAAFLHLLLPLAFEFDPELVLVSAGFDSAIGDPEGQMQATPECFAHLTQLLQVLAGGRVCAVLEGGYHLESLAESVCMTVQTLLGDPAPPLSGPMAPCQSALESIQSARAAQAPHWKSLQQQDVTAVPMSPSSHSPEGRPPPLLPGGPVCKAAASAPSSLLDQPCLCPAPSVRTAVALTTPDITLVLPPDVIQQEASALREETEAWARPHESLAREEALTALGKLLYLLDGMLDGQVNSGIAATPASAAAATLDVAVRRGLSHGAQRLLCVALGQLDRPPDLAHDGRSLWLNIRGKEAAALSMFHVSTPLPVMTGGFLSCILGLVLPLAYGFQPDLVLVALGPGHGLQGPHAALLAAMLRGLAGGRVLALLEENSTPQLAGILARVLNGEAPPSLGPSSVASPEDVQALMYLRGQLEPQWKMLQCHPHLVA
- procedure-text: HDAC enzyme activity test, HDAC10
- Format: biochemical
- run-parameters: Table 11, eleven HDAC isozymes; read-out: Inhibition ability (IC50) against HDAC10
pIC50: −log10 of the molar value.
Met means recorded pIC50 is 5 or above; Not met means it is below 5.

compound="CN1CCN(CC2CCc3c(c4cc(F)ccc4n3Cc3ccc(C(=O)NO)cc3)C2=O)CC1 (centres unmarked)" tested_system="HDAC10 (Homo sapiens)" assigned_category="Not met"
compound=O=C(NO)c1ccc(Cn2c3c(c4ccccc42)C(=O)N(CCN2CCOCC2)CC3)cc1 tested_system="HDAC10 (Homo sapiens)" assigned_category="Not met"
compound=CC1(C)CC(=O)c2c(C(F)(F)F)nn(Cc3ccc(C(=O)NO)cc3)c2C1 tested_system="HDAC10 (Homo sapiens)" assigned_category="Not met"
compound="O=C(NO)c1ccc(Cn2c3c(c4ccccc42)C(=O)C(CN2CCOCC2)CC3)cc1 (centres unmarked)" tested_system="HDAC10 (Homo sapiens)" assigned_category="Not met"
compound="CN1CCN(C(=O)N(CCCCCCC(=O)NO)c2ccc(-c3ccc4cnn(C)c4c3)cc2)CC1 [CKD-581, reference compound]" tested_system="HDAC10 (Homo sapiens)" assigned_category=Met

###

- tested-system: human recombinant HDAC6 (Homo sapiens, UniProt Q9UBN7)
- Construct: purchased Calibiochem Co. (so in the source) 382180
- Sequence (Q9UBN7 whole entry): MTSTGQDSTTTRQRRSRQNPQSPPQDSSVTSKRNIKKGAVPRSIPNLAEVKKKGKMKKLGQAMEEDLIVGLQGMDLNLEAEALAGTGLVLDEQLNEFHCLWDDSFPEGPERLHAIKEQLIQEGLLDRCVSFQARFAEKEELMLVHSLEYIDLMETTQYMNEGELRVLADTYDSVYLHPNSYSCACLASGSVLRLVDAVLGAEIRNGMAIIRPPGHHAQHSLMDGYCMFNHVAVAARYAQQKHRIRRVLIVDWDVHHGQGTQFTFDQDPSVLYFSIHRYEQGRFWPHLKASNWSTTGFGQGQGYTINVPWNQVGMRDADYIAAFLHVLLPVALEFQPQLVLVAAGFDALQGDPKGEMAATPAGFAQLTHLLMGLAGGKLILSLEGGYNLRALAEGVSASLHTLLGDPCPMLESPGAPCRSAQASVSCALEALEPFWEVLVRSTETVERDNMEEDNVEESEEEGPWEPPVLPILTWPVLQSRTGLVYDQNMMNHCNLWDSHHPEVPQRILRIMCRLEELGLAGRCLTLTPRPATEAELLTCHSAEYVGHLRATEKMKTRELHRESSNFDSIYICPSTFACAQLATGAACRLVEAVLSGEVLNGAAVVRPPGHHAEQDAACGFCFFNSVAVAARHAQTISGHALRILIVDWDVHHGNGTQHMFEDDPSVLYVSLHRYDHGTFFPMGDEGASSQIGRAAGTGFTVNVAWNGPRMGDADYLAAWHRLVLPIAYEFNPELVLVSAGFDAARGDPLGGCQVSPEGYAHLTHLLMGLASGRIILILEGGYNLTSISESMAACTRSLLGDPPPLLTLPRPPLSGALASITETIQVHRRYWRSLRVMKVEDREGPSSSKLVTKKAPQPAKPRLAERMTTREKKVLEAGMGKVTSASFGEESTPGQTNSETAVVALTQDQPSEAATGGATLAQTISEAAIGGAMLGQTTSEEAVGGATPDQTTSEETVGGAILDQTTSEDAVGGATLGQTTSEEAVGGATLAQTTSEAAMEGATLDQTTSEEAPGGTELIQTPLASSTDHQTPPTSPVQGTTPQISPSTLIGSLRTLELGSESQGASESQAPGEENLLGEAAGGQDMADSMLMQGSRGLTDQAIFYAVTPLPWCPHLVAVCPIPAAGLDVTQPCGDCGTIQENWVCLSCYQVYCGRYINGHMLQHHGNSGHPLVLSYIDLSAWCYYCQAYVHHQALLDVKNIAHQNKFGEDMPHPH
- procedure-text: HDAC enzyme activity test, HDAC6
- Format: biochemical
- run-parameters: Table 12; ratio HDAC1 IC50 / HDAC6 IC50
Yes means recorded Selectivity for HDAC6, HD1/HD6 is 200 or above; No means it is below 200.

molecule=CC1(C)CC(=O)c2c(n(Cc3ccc(C(=O)NO)cc3)c3ccc(F)c(F)c23)C1 tested_system="human recombinant HDAC6 (Homo sapiens, UniProt Q9UBN7)" assigned_category=No
molecule=CC1(C)CC(=O)c2c(n(CCCCCC(=O)NO)c3cc(F)ccc23)C1 tested_system="human recombinant HDAC6 (Homo sapiens, UniProt Q9UBN7)" assigned_category=No
molecule=CN1CCN(CCN2CCc3c(c4ccccc4n3Cc3ccc(C(=O)NO)cc3)C2=O)CC1 tested_system="human recombinant HDAC6 (Homo sapiens, UniProt Q9UBN7)" assigned_category=Yes
molecule="CCN1CCN(CC2CCc3c(c4ccccc4n3Cc3ccc(C(=O)NO)cc3)C2=O)CC1 (stereo not shown)" tested_system="human recombinant HDAC6 (Homo sapiens, UniProt Q9UBN7)" assigned_category=Yes
molecule="O=C(NO)c1ccc(Cn2c3c(c4ccccc42)C(=O)C(CN2CCC(F)(F)C2)CC3)cc1 (stereo not shown)" tested_system="human recombinant HDAC6 (Homo sapiens, UniProt Q9UBN7)" assigned_category=Yes
molecule="O=C(CCCCCn1c2c(c3ccccc31)C(=O)C(CN1CCC(F)(F)C1)CC2)NO (stereo not shown)" tested_system="human recombinant HDAC6 (Homo sapiens, UniProt Q9UBN7)" assigned_category=No
molecule="CC(C)N1CCN(CC2CCc3c(c4cc(F)ccc4n3Cc3ccc(C(=O)NO)cc3)C2=O)CC1 (stereo not shown)" tested_system="human recombinant HDAC6 (Homo sapiens, UniProt Q9UBN7)" assigned_category=No
molecule=O=C(NO)c1ccc(Cn2c3c(c4ccccc42)C(=O)N(CCN2CCOCC2)CC3)cc1 tested_system="human recombinant HDAC6 (Homo sapiens, UniProt Q9UBN7)" assigned_category=No
molecule=O=C(NO)c1ccc(Cn2c3c(c4cc(F)ccc42)C(=O)N(CCN2CCC[C@H]2CO)CC3)cc1 tested_system="human recombinant HDAC6 (Homo sapiens, UniProt Q9UBN7)" assigned_category=Yes
molecule="O=C(NO)c1ccc(Cn2c3c(c4ccccc42)C(=O)C(CN2CCN(c4ccc(F)cc4)CC2)CC3)cc1 (stereo not shown)" tested_system="human recombinant HDAC6 (Homo sapiens, UniProt Q9UBN7)" assigned_category=Yes
molecule="COCCN1CCN(CC2CCc3c(c4ccccc4n3Cc3ccc(C(=O)NO)cc3)C2=O)CC1 (stereo not shown)" tested_system="human recombinant HDAC6 (Homo sapiens, UniProt Q9UBN7)" assigned_category=Yes
molecule="CN1CCN(CC2C(=O)c3c(n(Cc4ccc(C(=O)NO)cc4)c4ccc(F)cc34)CC2(C)C)CC1 (stereo not shown)" tested_system="human recombinant HDAC6 (Homo sapiens, UniProt Q9UBN7)" assigned_category=No
molecule=O=C(NO)c1ccc(Cn2c3c(c4cc(F)ccc42)C(=O)N(CCN2CCC(CO)CC2)CC3)cc1 tested_system="human recombinant HDAC6 (Homo sapiens, UniProt Q9UBN7)" assigned_category=Yes
molecule=CC1(C)CC(=O)c2c(n(Cc3ccc(C(=O)NO)cc3)c3cccc(Br)c23)C1 tested_system="human recombinant HDAC6 (Homo sapiens, UniProt Q9UBN7)" assigned_category=No
molecule=O=C(NO)c1ccc(Cn2c3c(c4cc(F)ccc42)C(=O)N(CCN2CCOCC2)CC3)cc1 tested_system="human recombinant HDAC6 (Homo sapiens, UniProt Q9UBN7)" assigned_category=Yes
